GI50 values, listed per item
Test system: OVCAR-5
Assay: NCI tumour cell line growth inhibition, 48 h
The source made the active and inactive calls. Cut-off read from the data, not from the text of the source: active = GI50 up to about 1.1 µM and inactive = higher.
metric name: GI50

* COc1cc2c(cc1C)NC(=O)/C2=C/c1c(Cl)n(-c2ccccc2)c2ccccc12 | 29.5 µM (inactive)
* CC(C)=CCOc1cc(NC(=S)c2ccsc2C)ccc1Cl | 86.7 µM (inactive)
* COC(=O)/C=C(C)/C=C/c1cc(C(C)=O)c(C)o1 | 78.7 µM (inactive)
* CCCCCCCCCCCCCCCCCCNc1ccn(C2OC(CO)C(OP(=O)(O)OCC(O)COP(=O)(O)OCC3OC(n4cc(F)c(NCCCCCCCCCCCCCCCCCC)nc4=O)CC3O)C2O)c(=O)n1 (centres undefined) | > 50 µM (inactive)
* NC(=S)NNC(=S)NC(=O)c1ccco1 | > 10 µM (inactive)
* CCCCCCCCCCCCCCCCOP(=O)([O-])OCC[N+](C)(C)C | 8.17 µM (inactive)
* O=C1C2C3SC(c4cc5ccccc5cc43)C2C(=O)N1c1ccccc1 (centres undefined) | > 100 µM (inactive)
* CC[C@@H]1CC[C@@H]2[C@H](CC[C@]3(C)[C@@H](OS(=O)(=O)c4ccc(C)cc4)CC[C@@H]23)[C@H]1CO | > 100 µM (inactive)
* O=c1ccc(=O)c2c1c1[nH]c3ccccc3c1c1c(=O)c3ccccc3c(=O)c21 | > 10 µM (inactive)
